Species: Homo sapiens
Experiment: Binding affinity to 42GGG sequence of human telomeric DNA assessed as G-quadruplex formation at 25 degC upto 20 uM after 30 mins by electrophoretic mobility shift assay
Active and inactive are the calls of the source. No cut-off for these calls is given here.
Could you please pick one outcome from this set? active, inactive

Worked examples follow.
compound-smiles: CN(C)CCN1C(=O)c2ccc3c4ccc5c6c(ccc(c7ccc(c2c37)C1=O)c64)C(=O)N(CCN(C)C)C5=O
assigned-label: active
--
compound-smiles: c1cc2c3ccc4c5c(ccc(c6ccc7c(c1CN(CCN1CCCCC1)C7)c26)c53)CN(CCN1CCCCC1)C4
assigned-label: inactive
--
compound-smiles: O=C1c2ccc3c4ccc5c6c(ccc(c7ccc(c2c37)C(=O)N1CCNCCO)c64)C(=O)N(CCNCCO)C5=O
assigned-label: active

Query: recorded result category for `O=C1c2ccc3c4ccc5c6c(ccc(c7ccc(c2c37)C(=O)N1CCN1CCCCC1)c64)C(=O)N(CCN1CCCCC1)C5=O` in this test
inactive
